# Test system: HEK-293T
# experimental details: Multiplex assay against HEK293T;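 note: share of the cells with healthy nuclei that show this phenotype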
# Assay type: toxicity, cell-based
# condition notes: human, 24 h, 10 µM, compound concentration 10 uM, replicate 1
Exercise: state measured Population Tubulin-Different-Phenotype (%) for each of the compounds provided.
Please state the figure in %; there is no need to write the unit.

Ask: What value of Population Tubulin-Different-Phenotype (%) has been reported for the following compound? "N#CCNC(=O)c1ccc(-c2ccnc(Nc3ccc(N4CCOCC4)cc3)n2)cc1"
Reply: 88

Ask: What value of Population Tubulin-Different-Phenotype (%) has been reported for the following compound? "CN(c1cc(C(F)(F)F)nc(OCCC(=O)O)n1)c1cccc2c1CCC2"
Reply: 22

Ask: What value of Population Tubulin-Different-Phenotype (%) has been reported for the following compound? "C=CC(=O)Nc1cc(-n2c(=O)ccc3cnc4ccc(-c5ccc(NS(C)(=O)=O)cc5)cc4c32)ccc1C"
Reply: 59

Ask: What value of Population Tubulin-Different-Phenotype (%) has been reported for the following compound? Cl.Cn1c2c(c3ccc(Cl)c(Cl)c31)C(C#N)C1(CCNCC1)NC2=O (stereo not drawn)
Reply: 86

Ask: What value of Population Tubulin-Different-Phenotype (%) has been reported for the following compound? "CC[C@@H]1C(=O)N(C)c2cnc(Nc3ccc(C(=O)NC4CCN(C)CC4)cc3OC)nc2N1C1CCCC1"
Reply: 93

Ask: What value of Population Tubulin-Different-Phenotype (%) has been reported for the following compound? CC(Cc1ccc(O)c(O)c1)C(C)Cc1ccc(O)c(O)c1 (stereo not drawn) [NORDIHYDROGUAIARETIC ACID]
Reply: 7

Ask: What value of Population Tubulin-Different-Phenotype (%) has been reported for the following compound? "CC[C@H](Nc1ncnc2[nH]cnc12)c1nc2cccc(F)c2c(=O)n1-c1ccccc1"
Reply: 7

Ask: What value of Population Tubulin-Different-Phenotype (%) has been reported for the following compound? "Cl.NC[C@@H]1O[C@H](C23CC4CC(CC(C4)C2)C3)Cc2c1ccc(O)c2O"
Reply: 73

Ask: What value of Population Tubulin-Different-Phenotype (%) has been reported for the following compound? "CC(C)[C@H](CO)Nc1nc(Nc2cccc(Cl)c2)c2ncn(C(C)C)c2n1"
Reply: 96

Ask: What value of Population Tubulin-Different-Phenotype (%) has been reported for the following compound? "Cc1ccc(S(=O)(=O)NC2c3ccccc3Oc3ccccc32)cc1"
Reply: 55

Ask: What value of Population Tubulin-Different-Phenotype (%) has been reported for the following compound? "Cc1ccc(NC(=O)Nc2cc(C(F)(F)F)ccc2F)cc1Nc1ccc2c(c1)NC(=O)/C2=C\c1ccc[nH]1"
Reply: 1

Ask: What value of Population Tubulin-Different-Phenotype (%) has been reported for the following compound? "Cc1c(Nc2ccc(S(=O)(=O)N3CCN(C)CC3)cc2F)nc2ccc(Nc3cnn(C4CC4)c3)cn2c1=O"
Reply: 8

Ask: What value of Population Tubulin-Different-Phenotype (%) has been reported for the following compound? "CCCCN(CC)c1nc(C)nc2c1c(C)cn2-c1c(C)cc(C)cc1C.Cl"
Reply: 89

Ask: What value of Population Tubulin-Different-Phenotype (%) has been reported for the following compound? CCCCCNC(=N)N/N=C/c1c[nH]c2ccc(OC)cc12.O=C(O)/C=C\C(=O)O [TEGASEROD MALEATE]
Reply: 0

Ask: What value of Population Tubulin-Different-Phenotype (%) has been reported for the following compound? "CC(/C=C1\SC(=S)N(CCCC(=O)Nc2ccc(C(=O)O)c(O)c2)C1=O)=C\c1ccccc1"
Reply: 50

Ask: What value of Population Tubulin-Different-Phenotype (%) has been reported for the following compound? "NC(=O)c1ccc2nc(-c3ccc(C4(N)CCC4)cc3)c(-c3ccccc3)n2n1"
Reply: 8

Ask: What value of Population Tubulin-Different-Phenotype (%) has been reported for the following compound? "CCCc1cc(C)[nH]c(=O)c1CNC(=O)c1cc(-c2ccc(N3CCN(C(C)C)CC3)nc2)cc2c1cnn2C(C)C"
Reply: 77

Ask: What value of Population Tubulin-Different-Phenotype (%) has been reported for the following compound? "COc1ccccc1-c1cc(Nc2cccc(CS(N)(=O)=O)c2)ncn1"
Reply: 6
